Kindly state melting point for each of the entries shown.

The compound listed as `CN1CCC(c2c[nH]c3ccc(/C=C/S(N)(=O)=O)cc23)CC1` has a reported melting point of 208 to 209 °C

The compound listed as `c1coc(C2=NOCCS2)c1` has a reported melting point of 147 to 150 °C

The compound listed as Cc1cc(=O)n2c3c(cc(C(O)(C(F)(F)F)C(F)(F)Cl)cc13)CC2 (stereo not given) has a reported melting point of 160 to 164 °C

The compound listed as `O=C(O)Cn1cc(Cc2nc3c(F)c(F)cc(F)c3s2)c2cc(-c3ccccc3)ccc21` has a reported melting point of 156 to 159 °C

The compound listed as `C=C(C)CN1C(=O)c2cscc2Nc2ccccc21` has a reported melting point of 161 to 163 °C

The compound listed as CCOC(CN1C(=O)C(NC(=O)Nc2cccc(C)c2)CN(C(=O)C(C)(C)C)c2ccccc21)OCC (stereo not given) has a reported melting point of 167 to 169 °C

The compound listed as `Cc1nc2c(N)nc3ccccc3c2n1CCCNC(=O)OC(C)(C)C` has a reported melting point of 112 to 115 °C

The compound listed as `O=C(Cc1ccc(Cl)cc1)N1CCC2(CC1)Cc1ccccc1O2` has a reported melting point of 108 to 110 °C

The compound listed as COc1ccc([C@H]2N[C@H](c3ccc4c(c3)OCO4)c3ccccc32)cc1 (racemic) has a reported melting point of 123 to 125 °C

The compound listed as `CCCOc1ccccc1-c1nc2nc(N(CC)CC)ncc2c(=O)[nH]1` has a reported melting point of 116 to 117 °C

###

Quantity kind: melting point

The compound listed as `C=CCOC(=O)OCN1C(=O)C(c2cn(C)c3ccccc23)=C(c2cn(C)c3cc([N+](=O)[O-])ccc23)C1=O` has a reported melting point of 191 to 194 °C

The compound listed as `CS(=O)(=O)Nc1cccc(NC(=O)C(=O)N2CCC(Cc3ccc(F)cc3)CC2)c1` has a reported melting point of 102 to 106 °C

The compound listed as O=C(O)C1CCc2cc(C3CCCCCC3)c(Cl)cc21 (stereo not given) has a reported melting point of 138 to 140 °C

The compound listed as `O=C(O)CCCC/C=C(\c1ccc(C2=N[C@H](C(=O)NCCCCC3CCCCC3)CO2)cc1)c1cccnc1` has a reported melting point of 61 °C

The compound listed as `NC(=O)N1CC(OCc2cccc(Cl)c2)C1` has a reported melting point of 163 to 166 °C

###

Quantity kind: melting point

The molecule listed as C=C1CCC2C3CC(=O)c4cc(OC(C)=O)ccc4C3CCC12C (stereo not given) has a reported melting point of 91 to 94 °C

The molecule listed as `CC(C)c1c(C(=O)O)cnn1-c1ccc(Cl)cc1` has a reported melting point of 211 to 212 °C

The molecule listed as `COC(=O)c1cc(-c2ccc(C)cc2)n(Cc2ccc(Cl)cc2Cl)n1` has a reported melting point of 105 °C

The molecule listed as `COC(=O)c1cc(OC)cc2cc(-c3ccc(OC)c(F)c3)oc12` has a reported melting point of 121 to 123 °C

The molecule listed as `COc1cc(CCN2CCN(c3nsc4ccccc34)CC2)c(NC(=O)Nc2ccccc2C)cc1OC` has a reported melting point of 200 °C

The molecule listed as CN(Cc1cc2cc([N+](=O)[O-])ccc2o1)C1Cc2ccc([N+](=O)[O-])cc2C1 (stereo not given) has a reported melting point of 109 to 111 °C

The molecule listed as `CC(C)(C)c1ccc(S(=O)(=O)Nc2nc(-c3ncccn3)nc(Cl)c2-c2cccs2)cc1` has a reported melting point of 130 to 132 °C

The molecule listed as `CSc1nc2cncnc2n1Cc1ccc(F)cc1` has a reported melting point of 167 °C

The molecule listed as Cc1ccnc2c1C(=O)CC(c1ccccc1Cl)C2 (stereo not given) has a reported melting point of 97 to 98 °C

The molecule listed as `CCOC(=O)c1ccc(Cc2ccccc2)cn1` has a reported melting point of 109 to 111 °C

###

Quantity kind: melting point

The compound listed as O=C(NCCOc1ccc(CC(Sc2ccccc2)C(=O)O)cc1)c1ccc(-c2ccccn2)cc1 (stereo not given) has a reported melting point of 75 to 77 °C

The compound listed as `COC(=O)Cn1oc2cc(OC)ccc2c1=O` has a reported melting point of 185 to 188 °C

The compound listed as COC(=O)c1cn(-c2ccc(OC)c(OC3CC4CCC3C4)c2)c2ccccc12 (stereo not given) has a reported melting point of 120 to 122 °C

The compound listed as `COc1ccc2ccc(C(N)=O)c(OC)c2c1` has a reported melting point of 134 to 136 °C

The compound listed as `COC(=O)CCC(=O)Nc1cccc(COc2ccc(C(C)=O)c(O)c2)c1` has a reported melting point of 121 to 123 °C

The compound listed as `CC(C)C[C@H](NC(C)C)C(=O)O` has a reported melting point of 293 to 296 °C

The compound listed as `CN(c1ccc(Cl)cc1)c1nc(=O)c2cccnc2s1` has a reported melting point of 189 to 190 °C

The compound listed as `CC(=O)c1ccc(-c2ccc(F)cc2)c([N+](=O)[O-])c1` has a reported melting point of 88 to 90 °C

The compound listed as `CCCCn1c(=O)c2nn(S(=O)(=O)c3ccc(C(C)(C)C)cc3)cc2n(CCCC)c1=O` has a reported melting point of 158 to 159 °C

The compound listed as Cc1cc(=O)c2ccc(OCC(O)CCl)cc2o1 (stereo not given) has a reported melting point of 104 to 106 °C

###

Quantity kind: melting point

The compound listed as `Nc1ccc(Cl)c(C2SCCS2)c1` has a reported melting point of 60 to 63 °C

The compound listed as `CC1(CC(=O)N2CCC([C@H]3c4ncc(Br)cc4CCc4cc(Cl)cc(Br)c43)CC2)C=CN(S(C)(=O)=O)C=C1` has a reported melting point of 105 to 109 °C

The compound listed as `COc1cc2c(cc1OC)-c1c(N3CCNCC3)nc3ccccc3c1C2=O` has a reported melting point of 135 to 136 °C

The compound listed as CCCC(C)c1nn(-c2ccc(C(F)(F)F)cn2)cc1C=O (stereo unspecified) has a reported melting point of 63 to 64 °C

The compound listed as `Cc1oc(-c2ccc(Cl)cc2)nc1COc1cccc(CN(O)C(N)=O)c1` has a reported melting point of 125 to 127 °C

The compound listed as `CCOC(=O)C1=Cc2cccc(/C=C/C(=O)O)c2OCC1` has a reported melting point of 166 to 168 °C

The compound listed as `CCN(CC)C(=O)c1cc[nH]c1C` has a reported melting point of 120 to 121 °C

The compound listed as `CCOc1nc(Nc2ccc(F)c(Cl)c2)nc(NC2CCN(S(C)(=O)=O)CC2)n1` has a reported melting point of 197 to 199 °C

The compound listed as O=C(CCC1CCCCC1)NC1N=C(C2CCCCC2)c2ccccc2NC1=O (stereo unspecified) has a reported melting point of 133 to 138 °C

The compound listed as CCC1(C)C(=CC=C2C(=O)c3ccccc3C2=C(C#N)C#N)N2CCc3cccc1c32 (stereo unspecified) has a reported melting point of 230 °C

The compound listed as `Cc1cc(C2CC2)nc(NN)n1` has a reported melting point of 98 to 99 °C

###

Quantity kind: melting point

The compound listed as `CNC(=O)c1ccc(C)c(-n2c(C)cc(OCc3ccccc3CNC(=O)Nc3cc(C(C)(C)C)nn3-c3cccc(OCCO)c3)c(Cl)c2=O)c1` has a reported melting point of 168 to 170 °C

The compound listed as `COCc1nc(OC)c(NS(=O)(=O)c2cccc(Cl)c2Cl)nc1Cl` has a reported melting point of 193 to 196 °C

The compound listed as COC(=O)c1ccc(C(=O)NC2CCC(NC(=O)c3ccc(C(=O)OC)cc3)CC2)cc1 (centres undefined) has a reported melting point of > 350 °C

The compound listed as COC(=O)C1SC=CC1Sc1ccccc1 (centres undefined) has a reported melting point of 43 to 45 °C

The compound listed as `CN1CCCCNC1=C[N+](=O)[O-]` has a reported melting point of 88 to 89 °C

The compound listed as `COc1nc(-c2ccc(F)cc2C)c2c(n1)N(c1c(F)cccc1F)C(=O)NC2` has a reported melting point of 210 to 211 °C

The compound listed as `O=C(c1ccc(C2CCCCC2)cc1)N1Cc2ccccc2Nc2ccccc21` has a reported melting point of 175 to 176 °C

The compound listed as `Cc1oc(-c2ccccc2)nc1COc1ccc2cc(C/C=C/O)oc2c1` has a reported melting point of 143 to 144 °C

The compound listed as `COc1cccc2c(Nc3ccccc3C)c(C(=O)C3CCCCC3)cnc12` has a reported melting point of 115 to 117 °C
